Just for reference, patent US20200283528A1 is where these values come from.

- TARGET SYSTEM: cynomolgus PDL1, recombinant (Sino Biological) / PDL1-Fc chimeric protein (cynomolgus (Macaca fascicularis), UniProt G7PSE7 19-238)
- Sequence (G7PSE7 entry or part of it mutant limits assumed): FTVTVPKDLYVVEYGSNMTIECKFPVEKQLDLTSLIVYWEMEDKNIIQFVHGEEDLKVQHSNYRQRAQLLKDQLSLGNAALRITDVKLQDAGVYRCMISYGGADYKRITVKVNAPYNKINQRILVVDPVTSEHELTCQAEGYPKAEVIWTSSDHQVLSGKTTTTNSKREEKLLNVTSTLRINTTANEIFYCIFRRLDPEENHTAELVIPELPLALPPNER
- TEST: SPR Biacore T200; cynomolgus PDL1 (Sino Biological) captured; scFv as analyte
MEASURED ENDPOINT: KD, cyno/KD, human
Output spec: single numeric token, no unit.

# example entries with known answers
PRO830 (33-03-G02-sc01 scFv) (scFv, also called 33-03-G02 CDR) scFv: DIQMTQSPSSLSASVGDRVTITCQASQSINDYLAWYQQKPGKAPKLLIYKASTLASGVPSRFSGSGSGTDFTLTISSLQPEDFATYYCQQGYIITDIDNVFGTGTKVTVLGGGGGSGGGGSGGGGSGGGGSQVQLQESGPGLVKPSETLSLTCKVSGFSFSSGYDMCWIRQPPGKGLEWIGCVVAGSVDITYYASWAKGRVTISVDSSKNQFSLKLSSVTAADTAVYYCARKDAYSDAFNLWGQGTLVTVSS; 0.97
PRO1392 (33-03-G02-sc18 scFv) (scFv) scFv: DIQMTQSPSSLSASVGDRVTITCQASQSINDYLAWYQQKPGKAPKLLIYKASTLASGVPSRFSGSGSGTDFTLTISSLQPEDFATYYCQQGYIITDIDNVFGTGTKVTVLGGGGGSGGGGSGGGGSGGGGSQVQLQESGPGLVKPSETLSLTCKASGFSFSSGYDMCWVRQPPGKGLEWIACVVAGSVDITYYASWAKGRVTISKDSSKNQVSLKLSSVTAADTAVYYCARKDAYSDAFNLWGQGTLVTVSS; 2

Using the record for PRO1347 (37-20-B03-sc09 scFv) (scFv) DIQMTQSPASLSASVGDRVTITCQASQSIGTYLAWYQQKPGKPPKLLIYRAFILASGVPSRFSGSGSGTDFTLTISSLQPEDFATYYCQSNFYSDSTTIGPNAFGTGTKVTVLGGGGGSGGGGSGGGGSGGGGSEVQLVESGGGLVQPGGSLRLSCAASGFSFNSDYWIYWVRQAPGKGLEWIACIYGGSSGNTQYASWAQGRFTISRDNSKNTVYLQMNSLRAEDTAVYFCARGYVDYGGATDLWGQGTLVTVSS , report its KD, cyno/KD, human.
1.41
